biological target: Recombinant Cat D (Homo sapiens (Human)); test: In vitro enzymatic Cathepsin D (Cat D) FRET assay; type: biochemical; details: read-out: IC50 IP (μM) CatD
Sequence (P07339 65-412): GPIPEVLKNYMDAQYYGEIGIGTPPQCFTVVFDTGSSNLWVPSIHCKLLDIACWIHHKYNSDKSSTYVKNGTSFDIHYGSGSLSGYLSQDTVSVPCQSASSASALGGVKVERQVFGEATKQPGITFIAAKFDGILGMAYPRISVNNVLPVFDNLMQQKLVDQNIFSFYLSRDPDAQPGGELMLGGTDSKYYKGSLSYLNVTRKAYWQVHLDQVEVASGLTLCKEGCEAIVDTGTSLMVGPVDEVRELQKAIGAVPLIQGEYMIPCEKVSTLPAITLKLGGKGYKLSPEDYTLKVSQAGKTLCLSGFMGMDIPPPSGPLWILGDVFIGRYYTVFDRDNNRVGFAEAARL
Assign labels as follows, please: Fulfilled for IC50 below 700 µM; Not fulfilled for IC50 equal to or exceeding 700 µM.

Bench note: check whether COC[C@]12C[C@H]1[C@@](C)(c1cc(NC(=O)c3cnc(OCC(C)(C)C)cn3)cc(F)c1F)N=C(N)S2 shows IC50 below 700 µM Not fulfilled

Moving on to the next molecule: C#CCOc1cnc(C(=O)Nc2ccc(F)c([C@@]3(C)N=C(N)S[C@@]4(CF)C[C@H]43)c2)c(C)c1 Fulfilled

Field entry: Cc1nnc(COc2cnc3c(Nc4cc(F)c(F)c([C@@]5(C)N=C(N)S[C@@]6(C(F)F)C[C@@H]56)c4)nccc3n2)o1 Fulfilled

And then COC[C@H](C)Oc1cnc(C(=O)Nc2ccc(F)c([C@@]3(C)N=C(N)S[C@@]4(C(=O)NC(C)(C)C)C[C@H]43)c2)cn1 , what is it? Fulfilled

Moving on to the next molecule: CCOc1cnc(C(=O)Nc2cc(F)c(F)c([C@@]3(C)N=C(N)S[C@@]4(COC)C[C@H]43)c2)cn1 Not fulfilled
